# test: Bioavailability of compound was determined in rats dosed at […] iv in 10% HP-alpha-cyclodextrin in 0.05 M acetic acid and 10 mg/kg po in 0.5% HPMCw/0.1% Tween 80 (n=3)
# Format: ADME, organism-based
# details: rat, in vivo
recorded-metric: bioavailability

Any idea what bioavailability was measured for `CCS(=O)(=O)c1ccc(OC)c(Nc2ncc(-c3cccc(-c4ccccn4)c3)o2)c1.CS(=O)(=O)O` ?
11%
